src = the supplement of paper PMC5998384

# Test system: HeLa Kyoto;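 further: synchronized HeLa Kyoto cells, proteins quantified by TMT10plex mass spectrometry, three biological replicates, mitosis taken 0.5 h after nocodazole release, G1/S directly after double thymidine block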
# ASSAY_COMMENT: thermal stability score vs G1/S (z-score of summed log2 fold changes over temperatures); higher = more thermally stable than in G1/S
# STATED_CONDITIONS: cell cycle stage: mitosis
MEASURE: thermal stability score

INSERT INTO measurements (residue_codes, measurement) VALUES
  ('MDSDDEMVEEAVEGHLDDDGLPHGFCTVTYSSTDRFEGNFVHGEKNGRGKFFFFDGSTLEGYYVDDALQGQGVYTYEDGGVLQGTYVDGELNGPAQEYDTDGRLIFKGQYKDNIRHGVCWIYYPDGGSLVGEVNEDGEMTGEKIAYVYPDERTALYGKFIDGEMIEGKLATLMSTEEGRPHFELMPGNSVYHFDKSTSSCISTNALLPDPYESERVYVAESLISSAGEGLFSKVAVGPNTVMSFYNGVRITHQEVDSRDWALNGNTLSLDEETVIDVPEPYNHVSKYCASLGHKANHSFTPNCIYDMFVHPRFGPIKCIRTLRAVEADEELTVAYGYDHSPPGKSGPEAPEWYQVELKAFQATQQK [SETD7]', 2.54),
  ('MAASLRLLGAASGLRYWSRRLRPAAGSFAAVCSRSVASKTPVGFIGLGNMGNPMAKNLMKHGYPLIIYDVFPDACKEFQDAGEQVVSSPADVAEKADRIITMLPTSINAIEAYSGANGILKKVKKGSLLIDSSTIDPAVSKELAKEVEKMGAVFMDAPVSGGVGAARSGNLTFMVGGVEDEFAAAQELLGCMGSNVVYCGAVGTGQAAKICNNMLLAISMIGTAEAMNLGIRLGLDPKLLAKILNMSSGRCWSSDTYNPVPGVMDGVPSANNYQGGFGTTLMAKDLGLAQDSATSTKSPILLGSLAHQIYRMMCAKGYSKKDFSSVFQFLREEETF [HIBADH]', -0.199),
  ('MAAAGWRDGSGQEKYRLVVVGGGGVGKSALTIQFIQSYFVTDYDPTIEDSYTKQCVIDDRAARLDILDTAGQEEFGAMREQYMRTGEGFLLVFSVTDRGSFEEIYKFQRQILRVKDRDEFPMILIGNKADLDHQRQVTQEEGQQLARQLKVTYMEASAKIRMNVDQAFHELVRVIRKFQEQECPPSPEPTRKEKDKKGCHCVIF [RRAS2]', 1.12),
  ('MLSSCVRPVPTTVRFVDSLICNSSRSFMDLKALLSSLNDFASLSFAESWDNVGLLVEPSPPHTVNTLFLTNDLTEEVMEEVLQKKADLILSYHPPIFRPMKRITWNTWKERLVIRALENRVGIYSPHTAYDAAPQGVNNWLAKGLGACTSRPIHPSKAPNYPTEGNHRVEFNVNYTQDLDKVMSAVKGIDGVSVTSFSARTGNEEQTRINLNCTQKALMQVVDFLSRNKQLYQKTEILSLEKPLLLHTGMGRLCTLDESVSLATMIDRIKRHLKLSHIRLALGVGRTLESQVKVVALCAGSGSSVLQGVEADLYLTGEMSHHDTLDAASQGINVILCEHSNTERGFLSDLRDMLDSHLENKINIILSETDRDPLQVV [NIF3L1]', -0.332),
  ('MGFGDLKSPAGLQVLNDYLADKSYIEGYVPSQADVAVFEAVSSPPPADLCHALRWYNHIKSYEKEKASLPGVKKALGKYGPADVEDTTGSGATDSKDDDDIDLFGSDDEEESEEAKRLREERLAQYESKKAKKPALVAKSSILLDVKPWDDETDMAKLEECVRSIQADGLVWGSSKLVPVGYGIKKLQIQCVVEDDKVGTDMLEEQITAFEDYVQSMDVAAFNKI [EEF1B2]', -1.91);
